What Ki was measured for each of the following?
# measurement.target: CB1 cannabinoid receptor (Rattus norvegicus)
# Construct: membranes were prepared from rat forebrain membranes; from tissue; host or cells: rat forebrain
# Sequence (P20272 whole entry): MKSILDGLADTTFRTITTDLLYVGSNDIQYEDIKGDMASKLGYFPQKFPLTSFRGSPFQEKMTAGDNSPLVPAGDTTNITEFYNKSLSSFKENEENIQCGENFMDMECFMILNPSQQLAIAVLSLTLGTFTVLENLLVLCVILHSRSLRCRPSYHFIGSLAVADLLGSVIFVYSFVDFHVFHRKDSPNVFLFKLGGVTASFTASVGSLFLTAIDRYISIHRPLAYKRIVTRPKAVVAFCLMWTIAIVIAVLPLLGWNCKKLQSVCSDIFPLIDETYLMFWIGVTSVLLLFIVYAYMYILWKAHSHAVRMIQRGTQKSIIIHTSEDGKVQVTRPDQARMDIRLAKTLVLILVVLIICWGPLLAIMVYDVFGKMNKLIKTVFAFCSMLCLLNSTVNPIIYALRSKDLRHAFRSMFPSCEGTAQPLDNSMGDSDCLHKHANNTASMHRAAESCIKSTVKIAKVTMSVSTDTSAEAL
# experiment.description: CB1 receptor binding assay, [3H] CP-55,940 displacement, rat forebrain membranes
# condition: Table 1, bicyclic-cannabinoid analogs; rat forebrain membranes, 0.8 nM [3H] CP-55,940; read-out: Ki in nM for the CB1 Receptor
The answer is to be given in nM; state only the numeric part.

Consider the compound CCCCCCC1(c2cc(O)c([C@@H]3CC(=O)C4CC3C4(C)C)c(O)c2)SCCS1 (some centres unmarked) and give its measured Ki.
224

Value lookup for Ki; key = CCCCCCC1(c2cc(O)c([C@@H]3CC(O)[C@@H]4C[C@H]3C4(C)C)c(O)c2)SCCS1 (some centres unmarked)
133

====

Assignment: determine reported Ki for the given compounds.
Give the value in nM but do not write nM after it.

GET /values?readout=Ki&system=CB2 receptor (Mus musculus, UniProt P47936)&item= `CCCCCCC1(c2cc(O)c3c(c2)OC(C)(C)[C@@H]2CCC(=O)C[C@@H]32)CCCC1`
2.6

Query Ki on CB2 receptor (Mus musculus, UniProt P47936) for `C#CCCCCC(C)(C)c1cc(O)c([C@@H]2CC(=O)[C@@H]3C[C@H]2C3(C)C)c(O)c1`
Sequence (P47936 whole entry): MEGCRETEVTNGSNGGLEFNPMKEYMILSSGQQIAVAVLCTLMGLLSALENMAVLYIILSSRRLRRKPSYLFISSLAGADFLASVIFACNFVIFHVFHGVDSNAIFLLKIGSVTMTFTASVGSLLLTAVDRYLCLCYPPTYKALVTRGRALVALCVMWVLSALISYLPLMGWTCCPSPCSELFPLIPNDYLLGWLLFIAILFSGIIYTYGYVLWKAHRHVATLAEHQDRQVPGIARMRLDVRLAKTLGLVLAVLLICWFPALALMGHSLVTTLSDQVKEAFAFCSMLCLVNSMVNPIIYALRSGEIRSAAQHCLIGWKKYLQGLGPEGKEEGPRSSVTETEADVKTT
0.2

Fill in the recorded Ki for this compound, with CB2 receptor (Mus musculus, UniProt P47936) as test system: `C#CCCCCC(C)(C)c1cc(O)c2c(c1)OC(C)(C)[C@@H]1CC[C@H](O)C[C@@H]21`
12

What Ki appears in the records for this compound with CB2 receptor (Mus musculus, UniProt P47936)? `C#CCCCCC(C)(C)c1cc(O)c2c(c1)OC(C)(C)[C@@H]1CCC(=O)C[C@@H]21`
4.1

CB2 receptor (Mus musculus, UniProt P47936) / Ki / `CCCCC=CC1(c2cc(O)c3c(c2)OC(C)(C)[C@@H]2CCC(=O)C[C@@H]32)CCCC1` : value?
0.2

API: value(readout=Ki, system=CB2 receptor (Mus musculus, UniProt P47936)) for record `CC(C)(CCCCC=CI)c1cc(O)c2c(c1)OC(C)(C)[C@@H]1CC[C@@H](N=[N+]=[N-])C[C@@H]21`
0.7

Hi! What's the reported Ki for CCCCCCC1(c2cc(O)c([C@@H]3CC(O)[C@@H]4C[C@H]3C4(C)C)c(O)c2)SCCS1 (some centres unmarked) on CB2 receptor (Mus musculus, UniProt P47936)?
76.8

Notebook: pull reported Ki for CB2 receptor (Mus musculus, UniProt P47936), entry CC(C)(CCCCCCBr)c1cc(O)c2c(c1)OC(C)(C)[C@@H]1CCC(=O)C[C@@H]21 (relative stereo)
11.8

What Ki appears in the records for this compound with CB2 receptor (Mus musculus, UniProt P47936)? CCCCCCC1(c2cc(O)c3c(c2)OC(C)(C)[C@@H]2CCC(=O)C[C@@H]32)SCCS1 (single isomer, unassigned)
2.3

Please tell me: Ki of `CCCCCCC1(c2cc(O)c3c(c2)OC(C)(C)[C@@H]2CC[C@@H](O)C[C@@H]32)SCCS1` , system CB2 receptor (Mus musculus, UniProt P47936)?
13.9

Hi! What's the reported Ki for `CC(C)(CCCCCCI)c1cc(O)c2c(c1)OC(C)(C)[C@@H]1CC[C@@H](N=[N+]=[N-])C[C@@H]21` on CB2 receptor (Mus musculus, UniProt P47936)?
0.9

Form field: Ki recorded for `CC(C)(CCCCCCBr)c1cc(O)c([C@@H]2CC(=O)[C@@H]3C[C@H]2C3(C)C)c(O)c1` with CB2 receptor (Mus musculus, UniProt P47936) (enter value)
9.3

Please state recorded Ki (tested on CB2 receptor (Mus musculus, UniProt P47936)) of `CC(C)(CCCCCCBr)c1cc(O)c2c(c1)OC(C)(C)[C@@H]1CC[C@@H](N=[N+]=[N-])C[C@@H]21`
13.7

Which measured Ki belongs to `CCCCC=CC1(c2cc(O)c([C@@H]3CC(=O)[C@@H]4C[C@H]3C4(C)C)c(O)c2)CCCC1` , tested on CB2 receptor (Mus musculus, UniProt P47936)?
0.4

Which measured Ki belongs to CCCCCCC1(c2cc(O)c([C@@H]3CC(=O)C4CC3C4(C)C)c(O)c2)SCCS1 (some centres unmarked) , tested on CB2 receptor (Mus musculus, UniProt P47936)?
10.9

What measured Ki is associated with `CCCCCCC(C)(C)c1cc(O)c2c(c1)OC(C)(C)[C@@H]1CC[C@@H](N=[N+]=[N-])C[C@@H]21` on CB2 receptor (Mus musculus, UniProt P47936)?
10.2

Notebook: pull reported Ki for CB2 receptor (Mus musculus, UniProt P47936), entry `CCCCCCC1(c2cc(O)c([C@@H]3CC(=O)[C@@H]4C[C@H]3C4(C)C)c(O)c2)CCCC1`
0.4
